Values compiled from ChEMBL document CHEMBL1155547.

REPORTED ENDPOINT: IC50 (nM)
A number alone suffices; assume nM.

Short answer please: IC50, Cytochrome P450 2D6 (Homo sapiens), entry `Cc1ccccc1[C@H](OC[C@H](O)CNC(C)(C)Cc1ccc2ccccc2c1)C1CC1`
500

* * *

# EXPERIMENT: Cmax in rat at 10 mg/kg, po
# Type: ADME, organism-based
# Set-up: dose 10 mg/kg, route oral
# SETTINGS: in vivo
REPORTED ENDPOINT: Cmax (nM)
Provide the reading as a plain figure in nM.

What value of Cmax has been recorded for this entry: `Cc1ccccc1[C@H](OC[C@H](O)CNC(C)(C)Cc1ccc2ccccc2c1)C1CC1`
300
